Reported pIC50 values, Poly [ADP-ribose] polymerase 1 (Homo sapiens, UniProt P09874).
Note: pIC50 values are expressed as the negative base-10 logarithm of concentration in M.

Exercise: Give the measured pIC50 for `O=C(c1csc(Cc2n[nH]c(=O)c3ccccc23)c1)N1CCN(C(=O)c2ccccn2)CC1`
Solution: 7.34

Exercise: Tell me measured pIC50 for `N#Cc1ccc(C(=O)N2CCN(C(=O)c3csc(Cc4n[nH]c(=O)c5ccccc45)c3)CC2)cc1` please.
Solution: 7.07

Exercise: Determine its reported pIC50: `COc1ccc(CC(=O)N2CCN(C(=O)c3csc(Cc4n[nH]c(=O)c5ccccc45)c3)CC2)cc1`
Solution: 7.02

Exercise: Give the reported value of pIC50 for this record: `O=C(c1csc(Cc2n[nH]c(=O)c3ccccc23)c1)N1CCN(C(=O)c2cccs2)CC1`
Solution: 7.96

Exercise: Consider the compound `CCC(=O)N1CCN(C(=O)c2csc(Cc3n[nH]c(=O)c4ccccc34)c2)CC1` and give its recorded pIC50.
Solution: 7.10
